The measured values listed here are drawn from the supplement of paper PMC6555819.

system: PPARg:RXRa (NR concentration 180 nM, RXRa partner concentration 90 nM); assay: PBM binding z-score (relative to random genomic background probes); higher = stronger binding; sequences stand for … in GC…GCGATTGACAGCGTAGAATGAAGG
Classify by measured PBM binding z-score: Y if it is equal to or exceeds 1, N if it is smaller.

Query Sequence | Discrete Label
CCTTACGGGTCACTCCACGTTATAGCATCGGAGT | Y
TTACCAAGGTGAGCTGCGGTCGTTGATCCAACTC | N
TCATATAGGAAAACAGGTGAAAGTCCGTAAGTTA | Y
GCTTACGGGTCAAAGGTTATAGCCTGAATAGAAT | Y
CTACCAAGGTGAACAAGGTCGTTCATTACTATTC | Y
CCGACTCGGGCAGAAAGGTTACCATACCATCCGG | Y

---

system: PPARg:RXRa DBDmut IVT, anti-RXR (DBD mutation: RXRa K156A/R161A, NR concentration 270 nM, RXRa partner concentration 90 nM); assay: PBM binding z-score (relative to random genomic background probes); higher = stronger binding; sequences stand for … in GC…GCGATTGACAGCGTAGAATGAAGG
Classification scheme (PBM binding z-score): low value (below 0.5), medium value (0.5 to below 3), high value (3 or more)

Query Sequence | Discrete Label
TCTAGCAGGCCAGTGGGTCACTCAAGAGGTACGG | medium value
ACAGACAGGTAAGTGAAGGTAACTCAGCTGGACG | low value
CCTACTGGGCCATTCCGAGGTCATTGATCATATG | high value
GCAGACAGGTGAAACGCAGGTAAATCAGGGTGGC | low value
TCTAGTTGGTCACGGAGGTTACACACGACGGGTA | medium value
CCTATTAGTTGACAATAAGGGCAACCGAAGCTCG | low value
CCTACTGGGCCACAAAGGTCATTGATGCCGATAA | high value
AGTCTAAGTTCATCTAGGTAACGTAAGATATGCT | medium value
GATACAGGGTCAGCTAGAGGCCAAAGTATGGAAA | medium value
CGTGCTAGGTCATGGTCAGCTAATCTACAGTATG | high value

---

tested on: PPARg:RXRa 90nM:30nM, anti-RXR (NR concentration 90 nM, RXRa partner concentration 30 nM); experiment: PBM binding z-score (relative to random genomic background probes); higher = stronger binding; sequences stand for … in GC…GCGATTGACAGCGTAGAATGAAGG
# PBM binding z-score annotations

Query Sequence | PBM binding z-score
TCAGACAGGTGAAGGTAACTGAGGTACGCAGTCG | 2.96
TTACCAAGGTGAGCTGAGGTCGCTGATCCAACTC | 0.763
CGTCCAAGGTCAATGCTAGGTCAGTAAAAGCATT | 3.08
AGAATGAGTTTATACGTAGATCAGGGAAGAAAGT | -0.213
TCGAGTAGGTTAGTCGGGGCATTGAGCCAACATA | 0.777
CGAACGAGGGCATGAATTGATAGCAAATGCCGAT | 0.388
TCTTATAGGTAAAGGTGAAAGTCGAACGATATGA | 4.81
TCTCGGAGGACACGACAGGTCAGAGCTCGACATC | 1.5
TCATATAGGTAAATGCTAGGTGAACGTCCGATCT | 2.65
CCTAGCAAGCCAGGGTCACTCAAGCATTTCGCTT | 0.224
CCTTACGGGTCACTGACAGGTTATACCATTTGGA | 3.05
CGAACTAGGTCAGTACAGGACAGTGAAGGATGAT | 3.39
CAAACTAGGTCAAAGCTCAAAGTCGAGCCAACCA | 9.54
TGAATGAGGTTATAGATCAGGGAACGTGGCGTCG | 3.73
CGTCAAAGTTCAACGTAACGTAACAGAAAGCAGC | 3.84
ATCTCTAGGTAACAAATTCAGTGAAAGAGAGGAC | 0.732
CCTATCAGGCCAATCTGGGTCACTCAAGGCTTGA | 1.76
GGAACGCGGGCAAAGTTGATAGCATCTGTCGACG | 4.06
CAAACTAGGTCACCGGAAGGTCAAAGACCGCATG | 7.65
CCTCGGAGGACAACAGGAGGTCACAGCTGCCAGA | 1.1
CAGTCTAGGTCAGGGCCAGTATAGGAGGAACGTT | 1.96
GATACAGGGTCAGCTAGAGGCCAGCGTATGGAAA | 1.92
CAAACTAGGTCAAGGTCAAAGTTGGTTTGTGCCA | 8.52
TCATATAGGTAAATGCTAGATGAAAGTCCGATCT | 2.79
GCTGCTGGGTCAACTGATGGTCAGCTAAAGCTCG | 1.99
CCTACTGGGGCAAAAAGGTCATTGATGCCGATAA | 4.43
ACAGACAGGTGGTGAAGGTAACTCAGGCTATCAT | -0.321
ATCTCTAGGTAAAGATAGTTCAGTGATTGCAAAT | 0.607
GCTTACGGGTCGAAGGTTATAGCATGAATAGAAT | 6.88
GCTTGTAGATCAAGTTTAAGAAAGACTAAGCTAA | -0.107
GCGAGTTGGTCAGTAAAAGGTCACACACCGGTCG | 4.23
CCTCGGAGGACAGAAGGTCAGACCTGTCCGCTTT | 0.0778
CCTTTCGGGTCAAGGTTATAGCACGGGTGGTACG | 4.2
CGAACGAGAGCATGAGTTGATAGCAAATGCCGAT | -0.282
GCGACTGGGGCATCAGCAGGTTATCATAACTTAA | 0.369
CGTCCAAGCTCATAGGAGGTCAGTGAAGACAGAT | 0.173
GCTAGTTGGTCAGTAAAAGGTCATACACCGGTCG | 3.55
CCAGACAGGTGAAAGGTATCTCAGTCTGGTACGC | 4.13
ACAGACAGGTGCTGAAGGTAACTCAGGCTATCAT | -0.342
GCGACTGGGGCATCAGCAGGTTACCTTAACTTAA | 0.578
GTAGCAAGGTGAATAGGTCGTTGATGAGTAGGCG | 0.807
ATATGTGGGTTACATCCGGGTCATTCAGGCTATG | 3.36
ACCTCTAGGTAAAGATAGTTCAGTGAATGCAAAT | 0.178
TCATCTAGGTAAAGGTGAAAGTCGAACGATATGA | 4.92
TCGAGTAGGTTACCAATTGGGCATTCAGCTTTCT | 1.06
GGAACGAGGACATTCGAGTTGATAGCATGGCGAT | -0.155
GCGACTGGGGCATCAGCAGGTTACCATAACTTAA | 0.397
CGAACTAAGTCAGAACAGGACAGTGAAGGATGAT | -0.00279
TCTAGCAGACCAGAGGGTCACTCAAGAGGTACGG | 1.61
ACTATTAGTTGACTTACGGCAACCGATACGACGC | 0.113
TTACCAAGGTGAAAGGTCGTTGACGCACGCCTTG | 8.64
